- Organism: Rattus norvegicus
- Assay Notes: Open TG-GATES - Regimen: Single
- Type: toxicity, organism-based, Sprague-Dawley
- Set-up: regimen Single, gender Male, age 6 weeks
- Condition Set: in vivo, po, 0 mg/kg, 6 h, tissue Plasma, route gavage, dose level Control
What DBIL was measured for each of the following?
One number for each entry, in mg/dL.

Form field DBIL, entry CCCc1cc(=O)[nH]c(=S)[nH]1 : 0.046

Per the records, this molecule ( CNC(=C[N+](=O)[O-])NCCSCc1ccc(CN(C)C)o1 ) has DBIL equal to 0.066

GET /value?item= CN1C(=O)CCS(=O)(=O)C1c1ccc(Cl)cc1 (configuration not stated) &field=DBIL returns 0.02

Required: DBIL, one value per molecule below.
1. Brc1ccccc1
2. Nc1c2c(nc3ccccc13)CCCC2
3. CN/C(=N/CCSCc1nc[nH]c1C)NC#N
4. Cc1nnc2n1-c1ccc(Cl)cc1C(c1ccccc1Cl)=NC2

[A]
[0.01, 0, 0.074, 0.01]
